target: Prostaglandin D2 receptor 2 (Homo sapiens, UniProt Q9Y5Y4)
protocol.text: Displacement of [3H]PGD2 from human CRTH2 receptor expressed in CHO cells
Each record gets a class by Ki: label 0: < 0.04 µM; label 1: ≥ 0.04 µM and < 1 µM; label 2: ≥ 1 µM

Recorded results for 8 compounds are shown here.
compound	category
O=C(O)CN1C(=O)C2(CC(=O)N(Cc3c[nH]c4ccccc34)C2=O)c2cc(Cl)ccc21 (stereo not drawn)	label 1
Cc1onc(-c2ccccc2)c1CN1C(=O)CC2(C1=O)C(=O)N(CC(=O)O)c1ccc(Cl)cc12 (stereo not drawn)	label 0
COc1cccc(CN2C(=O)C[C@]3(C2=O)C(=O)N(CC(=O)O)c2ccc(Cl)cc23)c1	label 1
O=C(O)CCCN1C(=O)C2(CC(=O)N(Cc3ccccc3F)C2=O)c2cc(Cl)ccc21 (stereo not drawn)	label 2
O=C(O)CN1C(=O)[C@@]2(CC(=O)N(Cc3cc(Cl)ccc3F)C2=O)c2cc(Cl)ccc21	label 0
COCCN1C(=O)CC2(C1=O)C(=O)N(CC(=O)O)c1ccc(Cl)cc12 (stereo not drawn)	label 2
Cc1noc(C)c1CN1C(=O)CC2(C1=O)C(=O)N(CC(=O)O)c1ccc(Cl)cc12 (stereo not drawn)	label 1
CN(C)C(=O)CN1C(=O)CC2(C1=O)C(=O)N(CC(=O)O)c1ccc(F)cc12 (stereo not drawn)	label 2

Challenge: Class for COc1ccc2c(c1)C1(CC(=O)N(Cc3ccccc3)C1=O)C(=O)N2CC(=O)O (stereo not drawn) ?
Response given: label 2

Challenge: Class for CN1C(=O)C2(CC(=O)N(Cc3ccccc3)C2=O)c2cc(Cl)ccc21 (stereo not drawn) ?
Response given: label 2

---

target: Prostaglandin D2 receptor 2 (Homo sapiens, UniProt Q9Y5Y4)
Sequence (Q9Y5Y4 whole entry): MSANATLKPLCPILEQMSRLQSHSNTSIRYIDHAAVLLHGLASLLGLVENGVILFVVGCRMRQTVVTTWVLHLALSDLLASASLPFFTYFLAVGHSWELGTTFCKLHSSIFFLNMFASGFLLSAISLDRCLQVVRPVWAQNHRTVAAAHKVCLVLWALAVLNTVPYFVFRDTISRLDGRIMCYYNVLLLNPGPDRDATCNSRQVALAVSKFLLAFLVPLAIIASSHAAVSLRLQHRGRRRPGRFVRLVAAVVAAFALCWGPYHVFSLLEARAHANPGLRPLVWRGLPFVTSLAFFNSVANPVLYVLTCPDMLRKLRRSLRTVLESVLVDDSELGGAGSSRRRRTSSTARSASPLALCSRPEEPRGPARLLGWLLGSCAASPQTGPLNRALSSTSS
protocol.text: Displacement of [3H]PGD2 from human CRTH2 receptor expressed in CHO cells
endpoint.label: Ki (nM)
Write the value in nM as a bare number.

compound	unit.of.measurement	Ki
O=C(O)CN1C(=O)C2(CC(=O)N(C/C=C/c3ccccc3)C2=O)c2cc(Cl)ccc21 (stereo not drawn)	nM	747

Challenge: In one line, give reported Ki of the entry O=C(O)CN1C(=O)C2(CC(=O)N(Cc3cc(Cl)ccc3F)C2)c2cc(Cl)ccc21 (single isomer, unassigned; form 1) .
Response given: 13

Challenge: In one line, give reported Ki of the entry O=C(O)CN1C(=O)C2(CC(=O)N(Cc3cc(F)cc(F)c3)C2=O)c2cc(Cl)ccc21 (stereo not drawn) .
Response given: 37
